Assay: clinical
Conditions: human, in vivo, po, Human blood level, 2 h; subject D; single oral dose 500 mg D,L-lysine salt (Table 5) or equivalent 300 mg sodium salt (Table 6); serum, as free acid
measure-name: concentration at 2 h (ng/mL)
Give bare numbers, in ng/mL.

Ask: Quick one: concentration at 2 h for CC(C)Cc1ccc(C(C)C(=O)[O-])cc1.[Na+] (stereo not shown) ?
Result: 16300

###

Test: clinical
Details: human, in vivo, po, Human blood level, 2 h; subject A; single oral dose 500 mg D,L-lysine salt (Table 5) or equivalent 300 mg sodium salt (Table 6); serum, as free acid
measure-name: concentration at 2 h
Report the figure along with its unit, number first.

Ask: Given the entry CC(C)Cc1ccc(C(C)C(=O)[O-])cc1.[Na+] (stereo not shown) , report its measured concentration at 2 h.
Result: 900 ng/mL

These measurements were taken from patent US4279926A.
